# target.desc: T1, mouse IL-18 binding protein (mouse, UniProt Q9Z0M9 29-193)
# T1 sequence (looked up): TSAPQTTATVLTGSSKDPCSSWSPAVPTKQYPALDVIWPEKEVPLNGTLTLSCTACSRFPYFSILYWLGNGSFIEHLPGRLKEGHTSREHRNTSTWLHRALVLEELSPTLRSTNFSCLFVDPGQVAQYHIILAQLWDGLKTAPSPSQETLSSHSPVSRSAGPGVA
# test: cell-based or functional assay
recorded.endpoint: mouse IL-18 reporter assay EC50, +Mouse IL-18BP 50 nM (pM)
The reply should be a number in pM, with the unit left off.

The reported mouse IL-18 reporter assay EC50, +Mouse IL-18BP 50 nM of the binder mouse IL-18 G3V, H6K, K52A on monoFc scaffold (Fc fusion, not shown: small tags and cut ends) NFVRLKSTTAVIRNINDQVLFVDKRQPVFEDMTDIDQSASEPQTRLIIYMYADSEVRGLAVTLSVKDSKMSTLSSKNKIISFEEMDPPENIDDIQSDLIFFQKRVPGHNKMEFESSLYEGHFLACQKEDDAFKLILKKKDENGDKSVMFTLTNLHQSNGGPSVFLFPPKPKDTLMISRTPEVTCVVVDVSHEDPEVKFNWYVDGVEVHNAKTKPREEQYNSTYRVVSVLTVLHQDWLNGKEYKCKVSNKALPAPIEKTISKAKGQPREPQVYTLPPSREEMTKNQVNLTCLVKGFYPSDIAVEWESNGQPENNYKTTPPVLDSDGSFFLNSTLTVDKSRWQQGNVFSCSVMHEALHNHYTQKSLSLS was 4.86
